So I've got a bunch of molecules here, and I need their MIC S. pneumo. 1175 values.
test system: Streptococcus pneumoniae 1175; assay type: cell-based; details: Streptococcus pneumoniae 1175; microtiter broth dilution

stdin: Could you tell me which MIC S. pneumo. 1175 is on file for CCC1OC(=O)C(C)C(=O)C(C)C(OC2OC(C)CC(N(C)C)C2O)C(C)(OC)CC(C)C(=O)C(C)C2N(C3CN(S(=O)(=O)c4cccc(Cl)c4)C3)C(=O)OC12C (stereo not drawn) ?
stdout: <0.063 µg/mL

stdin: Also need CCC1OC(=O)C(C)C(=O)C(C)C(OC2OC(C)CC(N(C)C)C2O)C(C)(OC)CC(C)C(=O)C(C)C2N(C3CN(S(=O)(=O)c4cccc(-c5cnco5)c4)C3)C(=O)OC12C (stereo not drawn) , thanks.
stdout: <0.06 µg/mL

stdin: Moving on to the next molecule: CCC1OC(=O)C(C)C(=O)C(C)C(OC2OC(C)CC(N(C)C)C2O)C(C)(OC)CC(C)C(=O)C(C)C2N(C3CN(Cc4c(C)ccc5ccccc45)C3)C(=O)OC12C (stereo not drawn)
stdout: <0.063 µg/mL

---

tested on: Haemophilus influenzae 1218; test: MIC, microtiter broth dilution (NCCLS M100-S14), H. influenzae 1218 (susceptible); assay type: cell-based; settings: Haemophilus influenzae 1218
Exercise: state measured MIC H. influenzae 1218 for each of the compounds provided.
Report as a plain number; the unit mg/L is understood.

stdin: Which MIC H. influenzae 1218 is reported for this compound? CCC1OC(=O)C(C)C(=O)C(C)C(OC2OC(C)CC(N(C)C)C2O)C(C)(OC)CC(C)C(=O)C(C)C2N(C3CN(S(=O)(=O)c4ccc(-n5nc(C)c(=O)[nH]c5=O)cc4)C3)C(=O)OC12C (stereo not shown)
stdout: 1

stdin: Input CCC1OC(=O)C(C)C(=O)C(C)C(OC2OC(C)CC(N(C)C)C2O)C(C)(OC)CC(C)C(=O)C(C)C2N(C3CN(Cc4c(OC)cnc5cccnc45)C3)C(=O)OC12C (stereo not shown)
stdout: 2

stdin: What about CCC1OC(=O)C(C)C(=O)C(C)C(OC2OC(C)CC(N(C)C)C2O)C(C)(OC)CC(C)C(=O)C(C)C2N(C3CN(S(=O)(=O)c4cccc5c(C#N)cccc45)C3)C(=O)OC12C (stereo not shown) ?
stdout: 0.5

stdin: Same lookup for CCC1OC(=O)C(C)C(=O)C(C)C(OC2OC(C)CC(N(C)C)C2O)C(C)(OC)CC(C)C(=O)C(C)C2N(C3CN(S(=O)(=O)c4ccccc4F)C3)C(=O)OC12C (stereo not shown) , please.
stdout: 0.5

---

tested on: Haemophilus influenzae 1218; assay: MIC, microtiter broth dilution (NCCLS M100-S14), H. influenzae 1218 (susceptible); format: cell-based; conditions: Haemophilus influenzae 1218
attribute_measured: MIC H. influenzae 1218 (µg/mL)
Quick reminder: number only, in µg/mL, skip the unit.

stdin: What does the data say about its MIC H. influenzae 1218? Entry: CCC1OC(=O)C(C)C(=O)C(C)C(OC2OC(C)CC(N(C)C)C2O)C(C)(OC)CC(C)C(=O)C(C)C2N(C3CN(S(=O)(=O)c4ccc(Oc5ccncc5)cc4)C3)C(=O)OC12C (centres unmarked) [Example 3.26]
stdout: 4

stdin: Field entry: CCC1OC(=O)C(C)C(=O)C(C)C(OC2OC(C)CC(N(C)C)C2O)C(C)(OC)CC(C)C(=O)C(C)C2N(C3CN(C(=O)c4cncc5ccccc45)C3)C(=O)OC12C (centres unmarked) [Example 2.01]
stdout: 4

stdin: # iterate: CC[C@H]1OC(=O)[C@H](C)C(=O)[C@H](C)[C@@H](O[C@@H]2O[C@H](C)C[C@H](N(C)C)[C@H]2O)[C@](C)(OC)C[C@@H](C)C(=O)[C@H](C)[C@H]2N(CC3(C)CN(Cc4c[nH]nc4-c4ccccc4)C3)C(=O)O[C@]12C [6.09]
stdout: 0.5

stdin: Now try CCC1OC(=O)C(C)C(=O)C(C)C(OC2OC(C)CC(N(C)C)C2O)C(C)(OC)CC(C)C(=O)C(C)C2N(C3CN(S(=O)(=O)c4cnn(-c5ccccc5)c4C)C3)C(=O)OC12C (centres unmarked) [Example 3.12, 5-methyl-1-phenyl-1H-pyrazole-4-sulfonyl] .
stdout: 4

stdin: Queued: CCC1OC(=O)C(C)C(=O)C(C)C(OC2OC(C)CC(N(C)C)C2O)C(C)(OC)CC(C)C(=O)C(C)C2N(C3CN(S(=O)(=O)c4ccc5c(c4)CC(=O)N5)C3)C(=O)OC12C (centres unmarked) [Example 3.42]
stdout: 2

stdin: Ok, now CC[C@H]1OC(=O)[C@H](C)C(=O)[C@H](C)[C@@H](O[C@@H]2O[C@H](C)C[C@H](N(C)C)[C@H]2O)[C@](C)(OC)C[C@@H](C)C(=O)[C@H](C)[C@H]2N(C3CN(Cc4ccnc5c(C#N)cccc45)C3)C(=O)O[C@]12C [Example 1.95]
stdout: 2

stdin: Check CC[C@H]1OC(=O)[C@H](C)[C@@H](OC(=O)N2CCCC2)[C@H](C)[C@@H](O[C@@H]2O[C@H](C)C[C@H](N(C)C)[C@H]2O)[C@](C)(OC)C[C@@H](C)C(=O)[C@H](C)[C@H]2N(CC3CN(Cc4nc5ccccc5[nH]4)C3)C(=O)O[C@]12C [Example 5.11] too.
stdout: 1

---

system: Streptococcus pneumoniae 1095; format: cell-based; conditions: S. pneumoniae 1095 (ermB); microtiter broth dilution
Field: MIC S. pneumo. 1095. Provide a value for each of the compounds that follow.

stdin: Value wanted: MIC S. pneumo. 1095 (Streptococcus pneumoniae 1095) of entry CCC1OC(=O)C(C)C(=O)C(C)C(OC2OC(C)CC(N(C)C)C2O)C(C)(OC)CC(C)C(=O)C(C)C2N(CC3CCN(C(=O)c4cc5ccccn5n4)C3)C(=O)OC12C (centres unmarked) [13.16]
stdout: >64.00 µg/mL

stdin: # iterate: CCC1OC(=O)C(C)C(=O)C(C)C(OC2OC(C)CC(N(C)C)C2O)C(C)(OC)CC(C)C(=O)C(C)C2N(CC3CCCN3Cc3ccc(OC)nc3)C(=O)OC12C (centres unmarked) [12.03]
stdout: >64.00 µg/mL

stdin: Please answer likewise for CCC1OC(=O)C(C)C(=O)C(C)C(OC2OC(C)CC(N(C)C)C2O)C(C)(OC)CC(C)C(=O)C(C)C2N(CC3CCCN3C(=O)c3cc4cccnc4nc3C)C(=O)OC12C (centres unmarked) [10.39]
stdout: <0.06 µg/mL

stdin: // query: CC[C@H]1OC(=O)[C@H](C)C(=O)[C@H](C)[C@@H](O[C@@H]2O[C@H](C)C[C@H](N(C)C)[C@H]2O)[C@](C)(OC)C[C@@H](C)C(=O)[C@H](C)[C@H]2N(CC3(O)CN(Cc4cccc5nc[nH]c45)C3)C(=O)O[C@]12C [7.08]
stdout: <0.06 µg/mL

stdin: Next record, please: CCC1OC(=O)C(C)C(=O)C(C)C(OC2OC(C)CC(N(C)C)C2O)C(C)(OC)CC(C)C(=O)C(C)C2N(CC3CCCN3C(=O)c3cc4cccnc4[nH]3)C(=O)OC12C (centres unmarked) [10.55]
stdout: <0.06 µg/mL

stdin: For CCC1OC(=O)C(C)C(=O)C(C)C(OC2OC(C)CC(N(C)C)C2O)C(C)(OC)CC(C)C(=O)C(C)C2N(CC3CCN(Cc4cccc(OC)n4)CC3)C(=O)OC12C (centres unmarked) [15.05] then?
stdout: >64.00 µg/mL

stdin: Entry CCC1OC(=O)C(C)C(=O)C(C)C(OC2OC(C)CC(N(C)C)C2O)C(C)(OC)CC(C)C(=O)C(C)C2N(CC3CCCN3C(=O)c3nccc4ccccc34)C(=O)OC12C.O=CO (centres unmarked) [10.17] please
stdout: <0.06 µg/mL

stdin: Can you check CCC1OC(=O)C(C)(F)C(=O)C(C)C(OC2OC(C)CC(N(C)C)C2O)C(C)(OC)CC(C)C(=O)C(C)C2N(CC3CCCN3C(=O)c3ccc4cccnc4n3)C(=O)OC12C (centres unmarked) [10.30] next?
stdout: <0.06 µg/mL

stdin: Consider next the compound CCC1OC(=O)C(C)(F)C(=O)C(C)C(OC2OC(C)CC(N(C)C)C2O)C(C)(OC)CC(C)C(=O)C(C)C2N(CC3CCCN3C(=O)c3cc4ccccn4n3)C(=O)OC12C (centres unmarked) [10.28] in the same way.
stdout: <0.06 µg/mL

stdin: # repeat for CCC1OC(=O)C(C)C(=O)C(C)C(OC2OC(C)CC(N(C)C)C2O)C(C)(OC)CC(C)C(=O)C(C)C2N(CC3CCCN3C(=O)c3ccc4cccnc4n3)C(=O)OC12C.O=CO (centres unmarked) [10.16]
stdout: <0.06 µg/mL

stdin: Subsequent entry: CCC1OC(=O)C(C)C(=O)C(C)C(OC2OC(C)CC(N(C)C)C2O)C(C)(OC)CC(C)C(=O)C(C)C2N(CC3CCN(Cc4ccc5ccccc5n4)C3)C(=O)OC12C (centres unmarked) [11.04]
stdout: <0.06 µg/mL
